Answer each item with its documented Ligand Binding Inhibition (%).
- SYSTEM_UNDER_TEST: T1, human CD40 on cells (human, UniProt P25942 21-277)
- T1 construct: also called CD40 receptor on human B cells
- TEST: flow cytometry, labelled CD40L on CD40-293T cells, antibody at 20 ug/ml
Field: numeric (%). Do not append units.

Any idea what Ligand Binding Inhibition (%) was measured for 29H10 (antibody, V domains shown, also called 4877-1) VH: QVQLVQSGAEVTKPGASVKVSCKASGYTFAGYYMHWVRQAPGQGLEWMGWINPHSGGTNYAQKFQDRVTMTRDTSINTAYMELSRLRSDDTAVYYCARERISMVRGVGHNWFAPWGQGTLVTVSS VL: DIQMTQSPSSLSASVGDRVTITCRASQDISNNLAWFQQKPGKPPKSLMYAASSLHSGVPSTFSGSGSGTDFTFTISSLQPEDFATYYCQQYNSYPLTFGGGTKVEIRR ? -7

Consider the binder 36F3 (antibody, IgG4, V domains shown, also called 4891-1) VH: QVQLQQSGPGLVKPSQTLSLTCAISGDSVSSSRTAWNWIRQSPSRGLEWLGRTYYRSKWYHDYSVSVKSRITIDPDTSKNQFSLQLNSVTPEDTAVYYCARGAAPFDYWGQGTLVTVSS VL: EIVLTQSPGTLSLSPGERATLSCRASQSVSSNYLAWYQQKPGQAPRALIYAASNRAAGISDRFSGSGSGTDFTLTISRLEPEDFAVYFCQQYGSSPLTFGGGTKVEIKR and give its measured Ligand Binding Inhibition (%). 1

Look up Ligand Binding Inhibition (%): 39C2 (antibody, IgG4, V domains shown, also called 4887-1) VH: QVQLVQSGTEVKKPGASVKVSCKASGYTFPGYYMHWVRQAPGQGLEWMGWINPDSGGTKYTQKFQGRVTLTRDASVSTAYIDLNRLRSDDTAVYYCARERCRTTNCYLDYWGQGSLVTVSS VL: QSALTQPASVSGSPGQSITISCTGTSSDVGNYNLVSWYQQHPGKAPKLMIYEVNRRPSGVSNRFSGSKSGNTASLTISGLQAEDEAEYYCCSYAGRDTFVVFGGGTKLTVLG 2

Query (binder): 30A12 (antibody, IgG4, V domains shown, also called 4878-1) VH: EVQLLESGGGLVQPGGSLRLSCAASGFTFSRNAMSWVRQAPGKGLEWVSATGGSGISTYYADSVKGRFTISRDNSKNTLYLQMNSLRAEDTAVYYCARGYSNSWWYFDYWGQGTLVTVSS VL: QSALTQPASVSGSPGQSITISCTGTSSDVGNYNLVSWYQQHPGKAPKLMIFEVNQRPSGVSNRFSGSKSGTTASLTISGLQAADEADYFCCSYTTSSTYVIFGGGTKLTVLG ; field requested: Ligand Binding Inhibition (%) -3

What measured Ligand Binding Inhibition (%) goes with 33H6 (antibody, IgG4, V domains shown, also called 4883-1) VH: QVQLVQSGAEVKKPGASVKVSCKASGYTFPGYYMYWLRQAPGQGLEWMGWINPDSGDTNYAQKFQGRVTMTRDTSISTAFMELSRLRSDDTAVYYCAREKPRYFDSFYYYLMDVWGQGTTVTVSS VL: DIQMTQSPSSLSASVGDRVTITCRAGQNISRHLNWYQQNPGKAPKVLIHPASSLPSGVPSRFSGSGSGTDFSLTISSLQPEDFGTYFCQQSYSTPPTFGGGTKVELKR ? 7
